# SYSTEM: EGFR (D770_N771insNPG) (Homo sapiens (Human), UniProt P00533, INS770NPG)
# Sequence (P00533 other isoform, or with tags, fused parts or gaps del 1-668/ins NPG behind 770 limits assumed): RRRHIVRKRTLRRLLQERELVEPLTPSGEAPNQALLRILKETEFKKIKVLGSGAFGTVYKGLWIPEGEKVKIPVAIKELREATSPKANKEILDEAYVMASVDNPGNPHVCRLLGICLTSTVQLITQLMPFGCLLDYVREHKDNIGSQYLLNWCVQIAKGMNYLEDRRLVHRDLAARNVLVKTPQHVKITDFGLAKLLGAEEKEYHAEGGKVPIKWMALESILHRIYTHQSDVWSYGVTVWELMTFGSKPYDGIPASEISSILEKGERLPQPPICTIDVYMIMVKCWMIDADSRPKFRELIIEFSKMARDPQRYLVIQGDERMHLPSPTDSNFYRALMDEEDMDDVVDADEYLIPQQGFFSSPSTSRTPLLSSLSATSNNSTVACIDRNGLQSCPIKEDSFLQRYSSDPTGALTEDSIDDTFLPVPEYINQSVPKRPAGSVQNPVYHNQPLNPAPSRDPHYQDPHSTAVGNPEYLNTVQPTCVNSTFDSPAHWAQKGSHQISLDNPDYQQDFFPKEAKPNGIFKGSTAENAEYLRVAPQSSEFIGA
# TEST NAME: HotSpot radiometric kinase assay, EGFR (D770_N771insNPG)
# TEST SETTINGS: 10 μM ATP, read-out: EGFR (Δ770_N771insNPG) IC50
pIC50: −log10 of the molar value.
Param threshold (7) applies to pIC50; output Y when value >= threshold, N when value < threshold.

MOLECULE	SYSTEM	CAT
Cc1c2c(nn1C)/C=C/c1n[nH]c3ccc(cc13)-c1cnn(C)c1O[C@@H](C)CN(C(C)C)C2	EGFR (D770_N771insNPG) (Homo sapiens (Human), UniProt P00533, INS770NPG)	N
Cc1nn(C[C@H](C)O)c2c1/C=C/c1n[nH]c3ccc(cc13)-c1cnn(C)c1O[C@@H](C)CN(C)C2	EGFR (D770_N771insNPG) (Homo sapiens (Human), UniProt P00533, INS770NPG)	Y
CCOc1nn(CCO)c2c1/C=C/c1n[nH]c3cc(F)c(cc13)-c1cnn(C)c1O[C@@H](C)CN(C)C2	EGFR (D770_N771insNPG) (Homo sapiens (Human), UniProt P00533, INS770NPG)	Y
Cc1nn(C)c2c1-c1ccc3[nH]nc(c3c1)/C=C/c1c(OC(C)C)nn(CCO)c1CN(C(C)C)C[C@@H](C)O2	EGFR (D770_N771insNPG) (Homo sapiens (Human), UniProt P00533, INS770NPG)	N
C[C@H]1CN(C)Cc2c(c(OCC(F)(F)F)nn2C)/C=C/c2n[nH]c3ccc(cc23)-c2cnn(C)c2O1	EGFR (D770_N771insNPG) (Homo sapiens (Human), UniProt P00533, INS770NPG)	N

Now consider the entry below.
Asked: hey, is pIC50 for this one >= 7? Cc1nn([C@H]2COC[C@@H]2O)c2c1/C=C/c1n[nH]c3ccc(cc13)-c1cnn(C)c1OCCCO2 (single isomer, unassigned)
Given back: N

====

# SYSTEM: EGFR Δ746-750/C797S mutant (Homo sapiens (Human), UniProt P00533, C797S/DEL746-750)
# Sequence (P00533 other isoform, or with tags, fused parts or gaps C797S/del 1-668/del 746-750 limits assumed): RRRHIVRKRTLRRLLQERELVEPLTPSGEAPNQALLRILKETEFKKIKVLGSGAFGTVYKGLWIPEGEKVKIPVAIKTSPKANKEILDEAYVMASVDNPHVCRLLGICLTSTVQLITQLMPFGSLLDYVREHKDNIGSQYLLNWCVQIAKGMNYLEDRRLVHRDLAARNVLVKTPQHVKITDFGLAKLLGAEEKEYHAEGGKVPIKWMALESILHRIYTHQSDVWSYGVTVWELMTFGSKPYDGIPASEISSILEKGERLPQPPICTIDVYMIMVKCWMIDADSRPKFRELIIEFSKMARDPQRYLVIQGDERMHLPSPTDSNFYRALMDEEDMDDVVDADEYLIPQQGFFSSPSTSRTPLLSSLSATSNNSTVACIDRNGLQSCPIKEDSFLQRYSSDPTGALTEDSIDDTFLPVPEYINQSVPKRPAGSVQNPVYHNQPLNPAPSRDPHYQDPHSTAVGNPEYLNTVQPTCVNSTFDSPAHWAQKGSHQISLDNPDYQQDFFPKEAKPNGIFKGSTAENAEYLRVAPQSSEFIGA
# TEST NAME: HotSpot radiometric kinase assay, EGFR Δ746-750/C797S mutant
# TEST SETTINGS: 10 μM ATP
Classify by IC50. Ranges: bin 0 (below 0.8 nM), bin 1 (0.8 nM to below 30 nM), bin 2 (30 nM or more)

Asked: # bin lookup: classify CCOc1nn([C@@H](C)CO)c2c1/C=C/c1n[nH]c3cc(F)c(cc13)-c1cnn(C)c1O[C@@H](C)CN(C)C2 by its IC50
Given back: bin 0

====

# SYSTEM: CLK2 (Homo sapiens (Human))
# Sequence (P49760 whole entry): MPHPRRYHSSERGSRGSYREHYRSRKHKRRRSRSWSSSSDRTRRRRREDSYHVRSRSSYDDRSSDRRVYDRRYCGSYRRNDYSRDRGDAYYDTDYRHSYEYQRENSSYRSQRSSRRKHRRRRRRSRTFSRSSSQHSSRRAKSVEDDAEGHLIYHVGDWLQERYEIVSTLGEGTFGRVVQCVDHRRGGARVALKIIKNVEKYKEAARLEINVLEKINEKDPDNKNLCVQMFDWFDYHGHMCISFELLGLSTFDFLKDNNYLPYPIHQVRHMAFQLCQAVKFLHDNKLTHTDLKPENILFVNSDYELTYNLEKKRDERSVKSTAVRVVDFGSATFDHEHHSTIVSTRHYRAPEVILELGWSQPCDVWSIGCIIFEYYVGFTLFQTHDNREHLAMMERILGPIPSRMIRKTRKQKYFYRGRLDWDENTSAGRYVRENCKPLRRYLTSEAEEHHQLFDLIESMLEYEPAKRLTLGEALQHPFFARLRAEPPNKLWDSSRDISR
MEASUREMENT NAME: pIC50
One number for each entry, as −log10 of the molar value.

Field: example entries. Status: answers known.
SMILES	SYSTEM	TEST RESULT
CCOc1nn(CCO)c2c1/C=C/c1n[nH]c3cc(F)c(cc13)-c1cnn(C)c1O[C@@H](C)CN(CC)C2	CLK2 (Homo sapiens (Human))	9.62
CCOc1nn([C@H](C)CO)c2c1/C=C/c1n[nH]c3ccc(cc13)-c1cnn(C)c1O[C@@H](C)CN(C)C2	CLK2 (Homo sapiens (Human))	9.21

Count: 2. Required value per item: pIC50.
1. Cc1snc2c1/C=C/c1n[nH]c3ccc(cc13)-c1cnn(C)c1OCCOC2
2. CCOc1nn([C@@H](C)CO)c2c1/C=C/c1n[nH]c3cc(F)c(cc13)-c1cnn(C)c1O[C@@H](C)CN(C)C2

Given back:
7.46
8.60
